Tested on: SHSY5Y
test.details: In vitro cellular proliferation assay ([3H]-thymidine incorporation)
Format: cell-based, human
conditions: Homo sapiens, SH-SY5Y; SHSY5Y (Neuroblastoma), 72 hours with drug; read-out: IC50
measured.attribute: pIC50
Interpret pIC50 as the negative base-10 log of the concentration measured in mol/L.

Q: Tell me pIC50 reported for Cc1cc(N2CCOCC2)cc2[nH]c(-c3c(NC[C@@H](O)c4cccc(Cl)c4)cc[nH]c3=O)nc12 [Compound 1]
Ans: 6.83

* * *

Tested on: Rh1
test.details: In vitro cellular proliferation assay ([3H]-thymidine incorporation)
Assay type: cell-based, human
conditions: Homo sapiens, RH-1, 72 h
measured.attribute: pIC50
pIC50 is a log-scale quantity: -log10 of the concentration expressed in molar.

Q: Tell me its pIC50 on Rh1: C[C@@]1(C(=O)Nc2ccc(F)nc2)CCCN1c1nc(Nc2cc(C3CC3)[nH]n2)c2cccn2n1
Ans: 7.57
